Experiment: in vivo
Format: in vivo, mice
Conditions: male, CD-1, mouse, plasma, ip, 10 mg/kg, mice, IP 10 mg/kg, plasma, 60 min, mean of 3 animals; read-out: Plasma concentration C (mean)
MEASURED_ENDPOINT: concentration at 60 min
Returns: string containing the numeric result and its unit.

[ask] Item under review: O=C([O-])C1CCC2(CC1)CC(Nc1ncnc3[nH]c4c(F)cccc4c13)C2.[Na+] (stereo not shown) [Compound 77] . Reported concentration at 60 min?
[reply] 9910 ng/mL

====

Assay: in vivo
Format: in vivo, mice
Settings: male, CD-1, mouse, brain, ip, 10 mg/kg, mice, IP 10 mg/kg, brain, 1440 min, mean of 3; read-out: Brain concentration C (mean)
MEASURED_ENDPOINT: concentration at 1440 min (ng/g)
Return type: number; implicit unit ng/g.

[ask] Item under review: CCc1nc2c(C)nc(C)cc2n1-c1ccc(CCNC(=O)NS(=O)(=O)c2ccc(C)cc2)cc1 [Grapiprant, reference compound] . Reported concentration at 1440 min?
[reply] 0

====

Test: in vivo
Format: in vivo, mice
Conditions: male, CD-1, mouse, brain, ip, 10 mg/kg, mice, IP 10 mg/kg, brain, 240 min, individual animals; read-out: Brain concentration, Final
MEASURED_ENDPOINT: concentration at 240 min
Returns: string containing the numeric result and its unit.

[ask] Item under review: O=C(O)C1CCC2(CC1)CC(Nc1ncnc3[nH]c4c(F)cccc4c13)C2 (stereo not shown) [Compound 74] . Reported concentration at 240 min?
[reply] 21.6 ng/g

====

Biological target: EP4R (Homo sapiens)
Construct: Tango fusion cassette (only 'tango' is printed); expressed in transfected cells; host or cells: HTLA cells (tTA-dependent luciferase reporter, β-arrestin2-TEV fusion)
Test: biochemical
Type: binding
Conditions: […], read-out: % displacement of 3HPGE2 at 10 µM, 10 µM compound vs 10 nM 3H-PGE2
MEASURED_ENDPOINT: inhibition at 10 µM
Returns: string containing the numeric result and its unit.

[ask] Which inhibition at 10 µM is reported with EP4R (Homo sapiens) for this entry: Cc1cc(C)cc(C2(C(=O)NC(C)c3ncc(C(=O)O)s3)CC2)c1 (centres unmarked) ?
[reply] 3.6%

[ask] Param item: `CN(c1nc2cccc(F)c2s1)[C@H]1C[C@@H](C(=O)O)C1`
[reply] -18.4%

[ask] Param item: CC(c1nc(-c2cccc(C(F)(F)F)c2)no1)S(=O)(=O)c1nnc[nH]1 (centres unmarked)
[reply] 0.9%

[ask] Param item: O=C(O)c1ccc(C2CCCN2S(=O)(=O)c2ccccc2-c2ccno2)s1 (centres unmarked)
[reply] -10.1%

[ask] Param item: `O=C(O)c1ccc(-c2ccc(C=C3CSc4ccc(F)cc4C3=O)o2)cc1O`
[reply] 7.9%

[ask] Param item: `O=C(O)c1c[nH]c2c(Cl)cc(-c3ccc4ccccc4c3F)cc2c1=O`
[reply] -17.1%

[ask] Param item: O=C(O)CCC(Cc1ccccc1)NS(=O)(=O)c1csc2ccccc12 (centres unmarked)
[reply] -14.5%

[ask] Param item: `Cc1c(C(=O)N(C)c2nnn[nH]2)cnn1-c1ccc(Cl)cc1`
[reply] 37.7%

====

// values below are reported IC50
Molecular target: EP4R (Homo sapiens, UniProt P35408)
Construct: Tango fusion cassette (only 'tango' is printed); expressed in transfected cells; host or cells: HTLA cells (tTA-dependent luciferase reporter, β-arrestin2-TEV fusion)
Sequence (P35408 whole entry, the tested form may be a part): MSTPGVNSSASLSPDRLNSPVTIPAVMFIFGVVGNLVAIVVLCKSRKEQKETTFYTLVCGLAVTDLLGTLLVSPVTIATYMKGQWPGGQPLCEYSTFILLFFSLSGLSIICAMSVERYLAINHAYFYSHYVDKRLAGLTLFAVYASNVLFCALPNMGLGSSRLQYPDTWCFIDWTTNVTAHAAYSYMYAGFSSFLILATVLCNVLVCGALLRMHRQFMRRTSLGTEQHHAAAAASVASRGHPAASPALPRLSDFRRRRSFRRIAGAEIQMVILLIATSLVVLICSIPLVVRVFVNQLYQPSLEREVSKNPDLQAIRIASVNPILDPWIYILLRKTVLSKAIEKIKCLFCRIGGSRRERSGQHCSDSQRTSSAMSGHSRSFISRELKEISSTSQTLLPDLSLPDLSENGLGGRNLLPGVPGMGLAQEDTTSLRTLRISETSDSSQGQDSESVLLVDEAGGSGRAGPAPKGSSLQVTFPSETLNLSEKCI
Assay: PRESTO-Tango β-arrestin2 recruitment assay
Format: cell-based
Details: PRESTO-Tango IC50 (nM), antagonist mode, EC80 of PGE2
Return type: number; implicit unit nM.

MOLECULE	IC50 (nM)
O=C(O)CC1CN(C(=O)[C@@H]2C[C@]23CCOc2ccccc23)c2ccccc21 (some centres unmarked) [Compound 65]	5160
O=C(O)C[C@@H]1CC[C@H](NC(=O)c2csc(C3CCCCC3)c2)C1 [Compound 100]	1880

[ask] Which IC50 is reported with EP4R (Homo sapiens, UniProt P35408) for this entry: O=C(N[C@@H]1CC[C@@H](C(=O)O)CCC1(F)F)c1nn(-c2ccccc2F)c2c1CCC2 [Compound 118] ?
[reply] 3790

[ask] Param item: O=C(NC1CCCC(C(=O)O)CC1)c1nn(-c2ccccc2)c2c1CCC2 (centres unmarked) [Compound 98]
[reply] 2060

====

// values below are reported inhibition at 10 µM
Molecular target: EP4R (Homo sapiens, UniProt P35408)
Construct: Tango fusion cassette (only 'tango' is printed); expressed in transfected cells; host or cells: HTLA cells (tTA-dependent luciferase reporter, β-arrestin2-TEV fusion)
Assay: biochemical
Assay type: binding
Settings: […], read-out: % displacement of 3HPGE2 at 10 µM, 10 µM compound vs 10 nM 3H-PGE2
Return type: number; implicit unit %.

MOLECULE	READOUT_UNIT	RECORDED_MEASUREMENT
CN(C(=O)c1cc(N2CCCC2=O)cc(C(F)(F)F)c1)c1nnn[nH]1 [Compound 44]	%	-2.6
CC1(C(=O)O)CC(NS(=O)(=O)c2cc3cc(Cl)ccc3s2)CCO1 (stereo not drawn) [Compound 38]	%	-5.2

[ask] Item under review: CC(CN(C(=O)c1ccn(-c2ccccc2)n1)C1CC1)C(=O)O (stereo not drawn) [Compound 17] . Reported inhibition at 10 µM?
[reply] -14

[ask] Param item: O=C(NC1CC(C(=O)O)C1)N[C@@H]1CCC[C@@H]1n1cccn1 (stereo partly drawn) [Compound 4]
[reply] -21.9

[ask] Param item: CC1(C(=O)O)CCN(C(=O)C(O)c2ccc(Cl)c(Br)c2)C1 (stereo not drawn) [Compound 14]
[reply] -14.7

[ask] Param item: O=C(O)C1(n2cc(Cc3ccc(F)cc3F)cn2)CCC(c2ccccc2)CC1 (stereo not drawn) [Compound 1]
[reply] -28.7

[ask] Param item: CN1C(=O)C(=Cc2cccc(OCC(=O)O)c2)c2cc(Br)cnc21 [Compound 62]
[reply] 17.2

[ask] Param item: N#Cc1ccc(OCc2cccc(C(=O)Nc3cccc(-c4nnn[nH]4)c3)c2)cc1 [Compound 70]
[reply] 56.2

[ask] Param item: O=C(NCc1cc(Cl)cc2c1OCC2)c1cc2sc(C(=O)O)cc2[nH]1 [Compound 13]
[reply] -16.5

[ask] Param item: O=C(O)c1cc(NS(=O)(=O)c2cnc3ccsc3c2)ccc1O [Compound 27]
[reply] -10.4

[ask] Param item: O=C(O)Cc1ccc(NC(=O)c2cncc(-c3ccccc3)c2)cc1 [Compound 51]
[reply] 1

[ask] Param item: O=C(O)CC1CN(C(=O)[C@@H]2C[C@]23CCOc2ccccc23)c2ccccc21 (stereo partly drawn) [Compound 65]
[reply] 24

====

Molecular target: EP4R (Homo sapiens, UniProt P35408)
Construct: Tango fusion cassette (only 'tango' is printed); expressed in transfected cells; host or cells: HTLA cells (tTA-dependent luciferase reporter, β-arrestin2-TEV fusion)
Assay: biochemical
Assay type: binding
Conditions: […], read-out: % displacement of 3HPGE2 at 10 µM, 10 µM compound vs 10 nM 3H-PGE2
Binary classification by inhibition at 10 µM, with -10% as an inclusive lower bound for y; all other cases are n.

MOLECULE	CATEGORY
COC(C(=O)N(C1CC1)C(C)C(=O)O)c1cnn(C)c1 (stereo not drawn) [Compound 25, COC(C(=O)N(C(C)C(=O)O)C1CC1)C=2C=NN(C)C2]	n

[ask] Is it the case that CCSc1cc(C(=O)O)ccc1NC(=O)c1cnn(-c2ccccc2F)c1 [Compound 59] has inhibition at 10 µM reaching or exceeding -10%?
[reply] y

[ask] Param item: O=C(O)C1CC2(CC(NS(=O)(=O)C=Cc3ccc(F)cc3)CCS2)C1 (stereo not drawn) [Compound 57]
[reply] y

====

Target: EP4R (Homo sapiens)
Construct: Tango fusion cassette (only 'tango' is printed); expressed in transfected cells; host or cells: HTLA cells (tTA-dependent luciferase reporter, β-arrestin2-TEV fusion)
Assay: PRESTO-Tango β-arrestin2 recruitment assay
Type: cell-based
Settings: PRESTO-Tango -logIC50, antagonist mode, EC80 of PGE2
// values below are reported IC50
Return type: number; implicit unit µM.

The cases that follow already have their IC50 on record.
COMPOUND	TARGET_UNDER_TEST	READOUT_UNIT	IC50
O=C(O)C1CCC2(CC1)CC(Nc1ncnc3sc(-c4ccccc4)cc13)C2 (stereo not shown)	EP4R (Homo sapiens)	µM	776
Cc1cc(C(=O)NC2CCCC(C(=O)O)CC2)c(C)n1-c1ccccc1F (stereo not shown)	EP4R (Homo sapiens)	µM	479
CC(C)c1ccc2ncnc(NC3CC4(CCC(C(=O)O)CC4)C3)c2c1 (stereo not shown)	EP4R (Homo sapiens)	µM	19.5
O=C(N[C@@H]1CC[C@@H](C(=O)O)CCC1(F)F)c1c[nH]c(-c2ccccc2)c1	EP4R (Homo sapiens)	µM	18.6
Cc1cc(C(=O)N(C)C2CCCC(C(=O)O)CC2)c(C)n1-c1ccccc1 (stereo not shown)	EP4R (Homo sapiens)	µM	23.4
COc1ccc(-n2c(C)cc(C(=O)NC3CCCC(C(=O)O)CC3)c2C)cc1 (stereo not shown)	EP4R (Homo sapiens)	µM	53.7
Cc1cc(C(=O)N[C@@H]2CC[C@@H](C(=O)O)CCC2(F)F)c(C)n1-c1cccc(F)c1	EP4R (Homo sapiens)	µM	18.2
O=C(NC1CCCC(C(=O)O)CC1)c1csc(C2CCCCC2)n1 (stereo not shown)	EP4R (Homo sapiens)	µM	23.4
O=C(NC1CCCC(C(=O)O)CC1)c1csc(Cc2ccccc2)c1 (stereo not shown)	EP4R (Homo sapiens)	µM	22.9
O=C(NC1CCCC(C(=O)O)CC1)c1nn(-c2ccc(F)cc2)c2c1CCC2 (stereo not shown)	EP4R (Homo sapiens)	µM	17.4

[ask] Item under review: Cc1sc(C(=O)NC2CCCC(C(=O)O)CC2)cc1-c1ccc(F)cc1 (stereo not shown) . Reported IC50?
[reply] 501

[ask] Param item: Cc1cc(C(=O)NC2CCCC(C(=O)O)CC2)c(C)n1-c1ccc2c(c1)OCCO2 (stereo not shown)
[reply] 35.5

[ask] Param item: `O=C(O)Cc1ccc(NC(=O)c2cc(C3CC3)nc3ccc(F)cc23)cc1`
[reply] 11

[ask] Param item: `CN1C(=O)C(=Cc2cccc(OCC(=O)O)c2)c2cc(Br)cnc21`
[reply] 3.47
